Examples of binders with documented absorbance at 450 nm follow.
# target: T1, human CD40-Fc protein (amino acid residue 21-193 of SEQ ID NO: 67 linked to N-terminus of amino acid residue … (human, biotin-labeled in the capture ELISA and in the benchmark blocking ELISA; unlabeled when coated in the ligand blocking ELISA)
# T1 construct: also called biotin-labeled human CD40-Fc; human CD40-Fc-biotin
# T1 sequence (chain, as listed by the source): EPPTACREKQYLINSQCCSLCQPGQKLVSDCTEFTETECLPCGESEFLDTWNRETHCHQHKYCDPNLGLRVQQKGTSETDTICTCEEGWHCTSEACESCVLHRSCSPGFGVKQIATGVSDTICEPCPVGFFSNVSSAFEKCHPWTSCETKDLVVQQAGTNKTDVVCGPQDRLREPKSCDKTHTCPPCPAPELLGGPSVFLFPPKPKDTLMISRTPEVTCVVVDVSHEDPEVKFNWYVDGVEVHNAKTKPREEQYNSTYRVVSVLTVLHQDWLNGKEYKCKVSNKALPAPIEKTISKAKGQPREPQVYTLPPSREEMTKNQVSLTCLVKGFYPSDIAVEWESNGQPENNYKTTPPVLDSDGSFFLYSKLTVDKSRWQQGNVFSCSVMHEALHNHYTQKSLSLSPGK
# procedure.text: capture ELISA, biotin human CD40-Fc; mAb at 16 ng/mL

| binder | absorbance at 450 nm [OD450] |
| --- | --- |
| humanized antibody huC1C1-V5 (antibody, human IgG1, kappa, V domains shown, Human IgG1/kappa; also called humanized C1C1-V5) VH: EVQLVESGGGVVQPGRSLRLSCAASGFTFSNYGMSWVRQAPGKGLEWVASISSGGDDTYYPDNVKGRCTISRDNSKNTLYLQMNSLRAEDTAVYYCTRAGGKAMDYWGQGTLVTVSS VL: EIVLTQSPATLSLSPGERATLSCRASQSIRDNLHWYQQKPGQSPRLLINYASQSISGIPARFSGSGSGTDFTLTISSLEPEDFAVYYCQQFNSWPLTFGQGTKVEIKR | 0.34 |
| humanized antibody huC1C1-V1 (antibody, human IgG1, kappa, V domains shown, Human IgG1/kappa; also called humanized C1C1-V1) VH: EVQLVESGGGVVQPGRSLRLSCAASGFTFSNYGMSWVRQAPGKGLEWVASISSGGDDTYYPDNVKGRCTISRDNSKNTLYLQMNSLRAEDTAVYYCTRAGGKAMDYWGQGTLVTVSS VL: EIVLTQSPATLSLSPGERATLSCRASQSIRDNLHWYQQKPGQSPRLLINYASQSISGIPARFSGSGSGTDFTLTISSLEPEDFAVYFCQQFNSWPLTFGQGTKVEIKR | 0.353 |
| chimeric antibody C1C1 (antibody, human IgG1, kappa, V domains shown, also called chC1C1; chimeric C1C1) VH: EVKLVESGGGLVKPGASLKLSCAASGFTFSNYGMSWVRQNSDKRLEWVASISSGGDDTYYPDNVKGRCTISRENAKNTLYLEMSSLKTEDTALYYCTRAGGKAMDYWGQGTSVTVST VL: DIVLTQSPATLSVIPGNSVSLSCRASQSIRDNLHWYQQKSHESPRLLINYASQSISGIPSRFSGSGSGTDFTLTINSVETEDFGIYFCQQFNSWPLTFGGGTKLELKR | 0.329 |
| humanized antibody huC1C1-V2 (antibody, human IgG1, kappa, V domains shown, Human IgG1/kappa) VH: EVQLVESGGGVVQPGRSLRLSCAASGFTFSNYGMSWVRQAPGKGLEWVASISSGGDDTYYPDNVKGRFTISRDNSKNTLYLQMNSLRAEDTAVYYCTRAGGKAMDYWGQGTLVTVSS VL: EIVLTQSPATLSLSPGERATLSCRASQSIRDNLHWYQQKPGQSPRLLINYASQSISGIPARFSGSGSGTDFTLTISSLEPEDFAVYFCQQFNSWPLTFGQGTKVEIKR | 0.3 |
| mouse anti-CD40 monoclonal antibody C1C1 (antibody, V domains shown, those are used here for the chimeric antibody only; also called Mouse C1C1; mouse C1C1) VH: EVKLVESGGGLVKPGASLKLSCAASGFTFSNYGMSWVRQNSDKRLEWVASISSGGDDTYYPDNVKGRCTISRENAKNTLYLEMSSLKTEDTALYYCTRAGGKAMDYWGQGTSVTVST VL: DIVLTQSPATLSVIPGNSVSLSCRASQSIRDNLHWYQQKSHESPRLLINYASQSISGIPSRFSGSGSGTDFTLTINSVETEDFGIYFCQQFNSWPLTFGGGTKLELK | 0.764 |
| humanized antibody huC1C1-V3 (antibody, human IgG1, kappa, V domains shown, Human IgG1/kappa) VH: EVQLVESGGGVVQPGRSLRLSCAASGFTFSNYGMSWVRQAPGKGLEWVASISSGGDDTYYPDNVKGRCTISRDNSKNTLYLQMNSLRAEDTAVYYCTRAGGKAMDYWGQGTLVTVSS VL: EIVLTQSPATLSLSPGERATLSCRASQSIRDNLHWYQQKPGQAPRLLINYASQSISGIPARFSGSGSGTDFTLTISSLEPEDFAVYFCQQFNSWPLTFGQGTKVEIKR | 0.357 |
| humanized antibody huC1C1-V4 (antibody, human IgG1, kappa, V domains shown, Human IgG1/kappa) VH: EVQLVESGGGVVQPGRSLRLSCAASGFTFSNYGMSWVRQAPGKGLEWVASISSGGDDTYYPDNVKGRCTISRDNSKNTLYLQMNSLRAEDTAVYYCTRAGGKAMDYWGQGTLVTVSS VL: EIVLTQSPATLSLSPGERATLSCRASQSIRDNLHWYQQKPGQSPRLLIYYASQSISGIPARFSGSGSGTDFTLTISSLEPEDFAVYFCQQFNSWPLTFGQGTKVEIKR | 0.459 |
